# target system: T1, Full length mouse CD98hc on CHO cells (mouse, UniProt P10852 1-526)
# T1 construct: CHO cells stably overexpressing it; also called CHO-mouse CD98hc; CHO-mCD98hc
# T1 sequence: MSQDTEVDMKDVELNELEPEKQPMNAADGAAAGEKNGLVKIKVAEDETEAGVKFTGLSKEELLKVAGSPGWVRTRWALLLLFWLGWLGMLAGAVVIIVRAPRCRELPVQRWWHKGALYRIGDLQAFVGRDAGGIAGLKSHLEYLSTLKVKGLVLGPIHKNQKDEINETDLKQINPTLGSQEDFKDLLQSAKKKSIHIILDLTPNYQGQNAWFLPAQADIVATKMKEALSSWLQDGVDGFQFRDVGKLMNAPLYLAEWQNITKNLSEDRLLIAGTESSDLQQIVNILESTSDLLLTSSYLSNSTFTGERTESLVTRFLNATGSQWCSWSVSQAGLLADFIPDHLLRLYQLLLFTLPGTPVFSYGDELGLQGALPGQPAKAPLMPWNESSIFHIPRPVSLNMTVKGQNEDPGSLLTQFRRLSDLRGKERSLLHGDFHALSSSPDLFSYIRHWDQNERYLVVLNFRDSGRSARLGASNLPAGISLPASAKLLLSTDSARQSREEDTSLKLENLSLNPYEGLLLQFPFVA
# experiment description: FACS, hybridoma supernatant

[
  {
    "binder": "CD98HC.04.058 (antibody, V domains shown, hybridoma IgG) VH: QVQLQQSGAELVRPGVSVKISCKASGYTFTDHTMHWVKQSHARSLEWIGVISTYFGDASYNPKFKGKATMTVDKSSNTAYMELARLTSEDSAIYYCARVGGRLRLGYYFDYWGQGTTLTVSS VL: NIMMTQSPSSLAVSAGEKVTMNCKSSQTVLYSSNQKNYLAWYQQKPGQSPKLLIYWASTRESGVPDRFTGSGSGTDFTLTISSVQVEDLAVYYCHQYLSSYTFGGGTKLEIK",
    "binding result": "no binding"
  },
  {
    "binder": "CD98HC.04.047 (antibody, V domains shown, hybridoma IgG) VH: EVQLQESGPSLVKPSQTLSLTCSVTGDSITSGYWNWIRKFPGNKLEYMGYISYSGSTYYNPSLKGRVSITRDTSKNQYYLQLNSVTTEDTATYYCQRHVIYDYTWFAYWGQGTLVTVSA VL: QIVLTQSPAIMSASPGEKVTISCSASSSVGYMYWLQQKPGSSPKPWIYRTSILASGVPARFSGSGSGTSYSLTISSMEAEDAATYYCQQYQSYPLTFGAGTKLELK",
    "binding result": "no binding"
  }
]
